Measured values drawn from the supplement of paper PMC12764529 for this set.

folding stability dG unfold values by entry
- Experimental Details: folding stability dG unfold from chymotrypsin proteolysis; higher = more stable
Response body: numeric value in kcal/mol, unit text excluded.

Reference set, count: 5
SAGGSAGGGSFTLTEEPGGVLTITTPDKTLTVNLEGVTPDPNSDTTFSFTLSLDPDDSASVTSSSAGGSAGG [r6_202_JUSTAS] = 1.43
SASMEAALAKVEEITAEPSWELVGVSPEGVFTIRNPETGTEIVIEIKVTSDGKGYKVTIPSKTVVPAPESAG [r14_20_JUSTAS] = 1.3
SAGGSGIDFDIEFHNNHITIDIYMYDPNGQPIFEMTMTIPIPPVPPPPVPEVKVDDPEEAKEAKNQSAGGSA [r2_332_TrROS] = 2.35
SAGGGRPILFRPPDGSVEVVPVPADATLEEVKEVAEAAAAARGYTELSFDPATETVTIDLGGDRVEAASAGG [r13_572_JUSTAS] = 0.824
SAGGSAGDLELIGVFPFTLPDGRRITVPIFRDPSTGERYLFAETEGEEEDLTPAAIETALAVLERESAGGSA [r15_529_TrMRF] = 2.09

Request: Value lookup for folding stability dG unfold; key = SAGGSAGGSAGGKTYTLTFKAKIEVSEDDVVVITPPNGKKLVVPKENVKVHPDGTVTVTGSAGGSAGGSAGG [r7_684_TrMRF]
Response: 1.27

Request: Value lookup for folding stability dG unfold; key = SAGGPPVAEIRVTEEDPETGVVRMEATLPEAPRPVRATGTRLDPGGGTVLVTVTDPDGGPDTTTTLAASAGG [r13_337_JUSTAS]
Response: 0.221

====

folding stability dG unfold values by entry
- Experimental Details: folding stability dG unfold from chymotrypsin proteolysis; higher = more stable
Response body: numeric value in kcal/mol, unit text excluded.

Reference set, count: 6
SAGGGSTSTSTSTSTDPATGATTTTTTTTVPTPDGSGTVTTTTTTVPGAAPDTDTAPVTTTTTTTPTPSAGG [r13_715_JUSTAS] = 2.14
SAGGSAGRSRPLRLRFENPENGLRTEVELRVFEIGDYRVILLRERTYHPDTPGLSERDLLILLPPESAGGSA [r15_960_TrMRF] = 3.51
SAGGSAGGSGMPRKIASYEEKEEEDGKKTVKVRFPDDGKEITLSPEKAGKITPDSTVPLEELLSAGGSAGGS [r20_3_JUSTAS] = 0.404
SENKPVTVLVNVTKNEDGTYTARVFVFDENGKLLAEEEVEAPLEKAVELVEALKKAYPNAKVVAVFTEGLSA [r9_374_TrMRF] = 4.81
SATFKPGETVTIDELTIDGATITKVTVTVNADGTITITATIKPAPPPPPPPEVVRNPETGKTYPAGEVKDSA [r9_603_TrROS_Hall] = 0.615
SAGMMYKITIKTKNGEKIEIEIPAEELENLTEEQLKELAKELAKKLEEEGIEVEKVEVKIEPVKPEELSAGG [r19_334_TrROS_Hall] = 2.93

Below: the item to evaluate.
Request: Value lookup for folding stability dG unfold; key = SAGMIKVEVVVPPEDPSKPPSEEELRALAEEVVRELGLDPAKHPIEIKREVVDPEKGVLRYTITVKLPSAGG [r19_244_JUSTAS]
Response: 2.87

====

- Experimental Details: folding stability dG unfold (combined trypsin and chymotrypsin); higher = more stable
Entry flag: 1.0 if folding stability dG unfold reaches 0.3 kcal/mol; 0.0 if it does not.

Completed entries (count: 6):
SAGGSAGGSAGKVIIIKVPKKDMTPEEVEKLAKELKEKFPDAKITVIEVKKDGYIIIKIDSAGGSAGGSAGG [r11_365_TrROS_Hall] = 1.0
SAGGMTTTVTVTEDPATGTLTVPITIPRLDAEGNPTTEVLTVTLPASPEAEAAIAALAAALGIPAAASAGGS [r8_381_JUSTAS] = 1.0
SAGEYKVEEKDGKLYVTYPNGEKKEVEVKPAPPPVVTIKVKSVEELKALAEELNLEITEISEDTVVVKFSAG [r5_328_TrROS_Hall] = 0.0
SAGGSAGGSAGGTVTFFEENEFVIDVPDPLTGRPIRIEVPGDPNKPEEIEARAEELRLSSAGGSAGGSAGGS [r10_379_JUSTAS] = 0.0
SAGGSAGGSAVIVIPASVVEEKKEKIELKLEDETEYEVEVTTEKVGDEPIAVLKLIPKNIPSSAGGSAGGSA [r18_447_JUSTAS] = 0.0
SAGGKTKEIELEILFEPVKVKKKKKNKNGKEEEVEEKEFKPVLVRITLKIENGKITEIKIEVEKLDDLSAGG [r13_935_TrROS_Hall] = 1.0

Request: Reported folding stability dG unfold at or above 0.3 kcal/mol? SAGGSAGGSAGGSMELKLKVVEKTETRSATPGEDEPLPGNSSVTYEGNTLTTTTLVLVPLSAGGSAGGSAGG [r7_506_JUSTAS]
Response: 0.0

Request: Reported folding stability dG unfold at or above 0.3 kcal/mol? SAKIKIEKKEDGTIVIEVEAESEEEAEEAVKELVKELEKKGIKVEVVEVKIEKDPEKKGKYRVTIVIKKSAG [r14_119_TrROS_Hall]
Response: 1.0

Request: Reported folding stability dG unfold at or above 0.3 kcal/mol? SMPRLVATPRPDGSVLVLLEAPPERPEEIAEEIRERLGVPLRVVRIEPVPERVGDRPRLRYRVLIEVDVRSA [r9_431_TrMRF]
Response: 1.0

Request: Reported folding stability dG unfold at or above 0.3 kcal/mol? SAMKPKEVVIEISVEELRKLAKELFPEKELTLEELKNLVKELLEKLGIKVKKVEIVKVDPEKKRIVIKVSAG [r14_303_TrROS_Hall]
Response: 1.0

Request: Reported folding stability dG unfold at or above 0.3 kcal/mol? SAGGWITPELIEEIAKTIAEENPENGKEVPIEVVIPFPNSVIKIEIEFDPSNGKIEIEDIKVIPPNDLSAGG [r13_37_TrROS]
Response: 1.0

Request: Reported folding stability dG unfold at or above 0.3 kcal/mol? SAGGSASRRLFVRTLPDDAVIVVEVPPGMSEEEAVEIAERRAEAAERVLRAAIEAERAGKAPVIPLSAGGSA [r15_704_TrMRF]
Response: 1.0

Request: Reported folding stability dG unfold at or above 0.3 kcal/mol? SAGGSAGGSDIEIIINPNMSLEQAKKFANYLAQENNIPIEIEIIPPPKPEPEPERDPEDGKPKSAGGSAGGS [r12_159_TrROS]
Response: 0.0
